Property: pIC50; scope: individual molecules
Biological target: Btk (Homo sapiens, UniProt Q06187)
Construct: purified from insect cells as a full-length construct containing a N-terminal 6X-His tag; His6 (N); made in house; host or cells: insect cells (Method C)
Sequence (Q06187 whole entry): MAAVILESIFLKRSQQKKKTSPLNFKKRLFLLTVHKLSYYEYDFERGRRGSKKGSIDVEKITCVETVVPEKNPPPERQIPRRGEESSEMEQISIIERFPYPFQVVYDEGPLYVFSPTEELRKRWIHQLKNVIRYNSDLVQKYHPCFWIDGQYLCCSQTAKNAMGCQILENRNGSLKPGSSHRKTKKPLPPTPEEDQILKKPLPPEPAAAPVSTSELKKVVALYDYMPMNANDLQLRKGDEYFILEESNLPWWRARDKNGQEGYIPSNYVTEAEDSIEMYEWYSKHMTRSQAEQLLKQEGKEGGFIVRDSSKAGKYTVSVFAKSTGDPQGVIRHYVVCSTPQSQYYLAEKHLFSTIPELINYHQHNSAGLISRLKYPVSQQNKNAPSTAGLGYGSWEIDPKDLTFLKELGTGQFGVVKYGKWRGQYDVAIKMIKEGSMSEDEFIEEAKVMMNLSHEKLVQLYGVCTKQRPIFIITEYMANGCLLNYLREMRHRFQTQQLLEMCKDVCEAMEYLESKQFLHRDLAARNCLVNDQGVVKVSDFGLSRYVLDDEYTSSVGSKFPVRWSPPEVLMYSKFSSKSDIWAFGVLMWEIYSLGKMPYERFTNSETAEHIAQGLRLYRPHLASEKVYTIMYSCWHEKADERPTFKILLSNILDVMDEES
Assay: Btk in vitro inhibitory activity (one of Method A TR-FRET, Method B electrophoretic mobility shift, Method C radiometric filter binding)
Assay type: biochemical
Settings: wild-type Btk; read-out: Btk-WT IC50
As a rule, pIC50 stands for the negative log10 of the concentration, concentration in M.

compound.smiles: C=CC(=O)N1CCC(Nc2n[nH]c3nccc(-c4ccc(CNC(=O)c5ccc(C(C)(C)C)cc5)c(F)c4)c23)CC1
pIC50: 8.73

Pending molecule:
C[C@H]1CC[C@@H](Nc2n[nH]c3nccc(-c4ccc(CNC(=O)c5noc(C(C)(C)C)n5)c(F)c4)c23)CN1C(=O)CC#N yielded pIC50 of 8.58

---

Quick reference: TEC/Btk of the listed items.
Target: TEC (Homo sapiens)
Sequence (P42680 whole entry): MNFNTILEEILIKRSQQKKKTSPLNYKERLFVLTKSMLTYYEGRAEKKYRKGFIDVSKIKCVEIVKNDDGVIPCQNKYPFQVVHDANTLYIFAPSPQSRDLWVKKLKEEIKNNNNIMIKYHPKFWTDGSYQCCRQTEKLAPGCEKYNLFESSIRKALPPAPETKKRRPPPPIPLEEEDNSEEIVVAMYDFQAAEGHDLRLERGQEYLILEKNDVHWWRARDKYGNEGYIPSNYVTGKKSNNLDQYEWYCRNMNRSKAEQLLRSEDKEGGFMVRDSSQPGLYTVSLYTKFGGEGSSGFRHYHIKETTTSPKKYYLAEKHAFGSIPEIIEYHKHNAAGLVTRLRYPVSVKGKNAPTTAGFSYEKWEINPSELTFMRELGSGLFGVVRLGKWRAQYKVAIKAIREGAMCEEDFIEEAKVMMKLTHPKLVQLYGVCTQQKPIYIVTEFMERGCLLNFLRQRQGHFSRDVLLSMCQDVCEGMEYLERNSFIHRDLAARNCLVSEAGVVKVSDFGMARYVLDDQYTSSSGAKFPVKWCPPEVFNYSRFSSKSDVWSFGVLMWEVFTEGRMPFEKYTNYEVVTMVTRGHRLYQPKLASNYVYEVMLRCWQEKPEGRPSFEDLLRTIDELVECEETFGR
Assay: Inhibition of a panel of kinases (in vitro HotSpot kinase assay, 33P-ATP, 1 μM ATP)
Format: biochemical
Settings: ratio of TEC IC50 to Btk IC50 (selectivity)
Number only, no unit.

Some solved entries appear below for comparison.
molecule: C=CC(=O)N1CC[C@@H](Nc2n[nH]c3nccc(-c4ccc(CNC(=O)c5ccc(C)cc5)c(F)c4)c23)C1 [Compound 34]
measurement.target: TEC (Homo sapiens)
test.value: 31
//
molecule: CN(C)C(=O)N1CC[C@H](Nc2n[nH]c3nccc(-c4ccc(CNC(=O)c5ccc(C(C)(C)C)cc5)c(F)c4)c23)C1 [Example 114]
measurement.target: TEC (Homo sapiens)
test.value: 44

GET /value?item= C=CC(=O)N1CC[C@@H](Nc2n[nH]c3nccc(-c4ccc(CNC(=O)c5ccc(C(C)(C)C)cc5)c(F)c4)c23)C1 [Compound 6] &field=TEC/Btk returns 210

Form field TEC/Btk, entry C=CC(=O)N1CC[C@@H](Nc2n[nH]c3nccc(-c4ccc(CNC(=O)c5nnc(C(C)(C)C)o5)c(F)c4)c23)C1 [Example 81] : 577

Entry CN(C)C(=O)N1CC[C@H](Nc2n[nH]c3nccc(-c4ccc(CNC(=O)c5noc(C(C)(C)C)n5)c(F)c4)c23)C1 [Example 113] ; TEC/Btk = 164

Just so you know, measured TEC/Btk for CC#CC(=O)N1CC[C@@H](Nc2n[nH]c3nccc(-c4ccc(CNC(=O)c5ccc(C(C)(C)C)cc5)c(F)c4)c23)C1 [Compound 7] came out at 179

Kindly note the recorded TEC/Btk for C=CC(=O)N1CCC[C@@H](Nc2n[nH]c3nccc(-c4ccc(C5(NC(=O)c6noc(C(C)(C)C)n6)CC5)c(F)c4)c23)C1 [Example 133] , which is 330

In plain terms, CC#CC(=O)N1CC[C@@H](Nc2n[nH]c3nccc(-c4ccc(CNC(=O)c5ccc(C(F)(F)F)cc5)c(F)c4)c23)C1 [Example 110] has a documented TEC/Btk of 88

Per the record, C[C@H]1CC[C@@H](Nc2n[nH]c3nccc(-c4ccc(CNC(=O)c5noc(C(C)(C)C)n5)c(F)c4)c23)CN1C(=O)CO [Example 227] has TEC/Btk of 448

Recorded TEC/Btk (molecule C=CC(=O)N1CCC[C@@H](Nc2n[nH]c3nccc(-c4ccc(C5(NC(=O)c6noc(C(C)(C)C)n6)CC5)cc4)c23)C1 [Example 270] ): 774

Taken from patent US20180194762A1.
